# key: entry, value: 8OG:A repair function score
B1: library; numbered along this chain (parent)
chain: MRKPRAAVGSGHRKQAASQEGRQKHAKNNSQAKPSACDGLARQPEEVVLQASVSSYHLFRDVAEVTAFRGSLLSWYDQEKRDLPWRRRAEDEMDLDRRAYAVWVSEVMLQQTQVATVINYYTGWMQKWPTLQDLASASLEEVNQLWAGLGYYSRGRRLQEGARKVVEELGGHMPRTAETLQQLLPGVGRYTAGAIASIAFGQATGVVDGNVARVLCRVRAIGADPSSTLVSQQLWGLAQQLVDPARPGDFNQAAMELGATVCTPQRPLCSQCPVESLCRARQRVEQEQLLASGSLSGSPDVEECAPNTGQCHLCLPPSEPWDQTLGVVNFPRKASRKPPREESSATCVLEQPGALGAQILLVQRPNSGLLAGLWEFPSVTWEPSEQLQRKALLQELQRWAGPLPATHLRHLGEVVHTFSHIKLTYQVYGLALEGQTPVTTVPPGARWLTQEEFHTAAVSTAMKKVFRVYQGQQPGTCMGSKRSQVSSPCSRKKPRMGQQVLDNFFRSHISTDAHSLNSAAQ

- Variants of: B1
- Experiment Notes: 8OG:A repair function score (normalized; synonymous = 0, nonsense = -1) (normalized log-likelihood score); higher = more repair activity (WT-like);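 also: cells sorted at 72 h after reporter transfection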
- Conditions Used: with 8OG:A DNA repair reporter (GFP) in HEK-293 MUTYH KO cells

Q397K	-0.304
K422I	-0.297

Exercise: Specify reported 8OG:A repair function score for the variant shown: E287V
Solution: -0.04
